System: protein sample
Experiment: Protein quality control screen: melting point temperature vs pH and NaCl concentration
Type: physicochemical
Details: pH 7.5; NaCl Concentration 1
From the text: In one embodiment, the present invention contemplates a method comprising a protein quality control screen. Although it is not necessary to understand the mechanism of an invention, it is believed that a quality control screen may be used to analyze: i) comparison of protein state prior to storage and post storage; ii) protein synthesis/purification lot-to-lot comparison; and iii) protein synthesis/purification batch testing. […]
Property: protein melting point temperature (°C)
State just the number; it will be interpreted in °C.

IN: // lookup protein melting point temperature for [Cl-].[Na+] [sodium chloride]
OUT: 77.5
